experiment: soluble fraction after stress (log2 fold change); higher = more stays soluble; pooled small domains, quantitative proteomics; conditions: stress: pH 4
quantity_name: soluble fraction (log2)
# respond with the number and nothing more

{"columns": ["input_sequence", "soluble fraction (log2)"],
 "data": [
  ["HMDVLDVADNVNDDMSFADAFAAARSEVGAGGIFYWHGKAYGTYYENEWAGMSEEDKADYWDAVARTTS", -0.779]
]}

I am curious: what soluble fraction (log2) value has been reported for HMGKVNTRNRNEGKFYKNGKKKPANWEYRFEAAPVNGKRQQISDAGYPTEKAAYEAGIAAYEKYNSAGSVN ? 0.0128

Next sequence up: HMPGRKKLAIIYKNDYIGAFNLADSYRDSYEVSMYAFPKKVGKLLNRLELQGFNAYVIYDKDNEENNFNTI 0.00545

Do the same for HMKVRDTQYIIEAAISKNVIRKSKNIYYYGTDIIGRSLEDAIASLNDKKNQDIKMTILQEIES please 0.0993

Check HMKKMSFKEAFLKYVEIKDNPYNMESVKMLVSLQPLIVKAYSILGVDKVRRLNYVKTKIQDAIINGD too. 0.0648

Query HMVITEQTVTVKYLYEDDTEAAPEHSETHKTGETFEIESPKIDGFTPDYELITGTIANDDLVYIVRYKTTP next -0.526

Similarly, HMSQRITYTEFVQMVKDDKVEKVEVGANQYNITPKSDDKTLVKMTYYTGFIKDENLLDLLNKHKVEIDGYI ? 0.169

What about HMELGWYVRLRRRELGLSVTALAEKAGMSQSYLSQIETGDRGNPSPESLRSLAEALEVSPRELESLV ? 0.286

###

experiment: soluble fraction after stress (log2 fold change); higher = more stays soluble; pooled small domains, quantitative proteomics; conditions: stress: pH 4
Here the recorded soluble fraction (log2) is given for each entry.
API doc: respond with a numeric literal and nothing else, no unit.

These solved cases illustrate the format of a correct answer.
{"columns": ["input_sequence", "reported"],
 "data": [
  ["HMSGTESMIEGRGEARTAIDGEGKVFFQGEYWTAQSDQFIPQGAKVRIKKVEGLNLIVEEIK", -0.796],
  ["HMINFLSKREIEVLRLVADGLSNRDVGQYLFISESTVKRHLSTIYEKLAVKSRTQAIDHARRADL", -1.39],
  ["HMAPAPDEAFAEFVRSSAPSLTRTAWLLTGDRGHAQDLVQNAYAKTLQAWGRLDAEGALAYTRRAVIT", -0.0327],
  ["HMTPFLVRVDISDLNIRTGAGTNYSRTGQYTGKGIFTILEVKSGQGSDAGWGRLKSGAGWISLDYTTR", 0.275],
  ["HMATEWLSSKEAAQRLGVSAATLYAYVSRGLLRSEGSSGQRERRYRADDVAQLRRRREVGRKAESIAASTL", 0.142]
]}

Now for another entry.
Consider the sequence HMRWSDQKEIVTLSLDHVLVEKGRKTKEYSWREFRTFTAFEIKKSSKDQINLGFKSKGNTVIIGNF and give its measured soluble fraction (log2). -0.438

###

experiment: soluble fraction after stress (log2 fold change); higher = more stays soluble; pooled small domains, quantitative proteomics; conditions: stress: pH 4
quantity_name: soluble fraction (log2)
Give only the figure.

Examples from the recorded data:
{"columns": ["input_sequence", "reported"],
 "data": [
  ["HMGNWEQQLRSWADGELATGKQDILTTAVPAFERALIETALSHTNGRKRDAAELLGWGRNTLTRKLKELGM", -0.46],
  ["HMDTLRPLGRYQNVHLTKQELTALQSEFSDWSERIERLSSYMASTGRKYQNHAATIRLWAEKDK", 0.161],
  ["HMPLITDIKIQVKNTEKVSLFVDGKYSFSLTISQLAEHKILKTNQEISAKQVAEFKKLSNLTNLYIRIVG", -0.296]
]}

Consider the sequence shown here: HMDPLADLFSRIRNAQMRNKKVVTSPASKLRAGILEVLAKEGYIRGYAMTQHASGKNELDIELN What is its recorded soluble fraction (log2)? -0.0916

Follow-up item: HMLIPTISVTKEGQLRFENIPVSWEELGTRLRDVSDLDKIKIYADAESDALTISEIMKTAANVGIVQFVLV -1.13

Try the sequence HMSETIVFGQQKAINTLSSEAGLSSAELNNYLKKRYQRPLFQLTVSEGADLIQGFQDGTLTKASITQYVSQ 0.22

Quick one: HMEYTVNRLAQISGVSKRTLRYYDEIGLLRPERVNPNGYRIYGQMQVDLLQQILFYRELGLPLEEIREII -0.639

Input HMEKELVSDFASRISTARSSKGWNHAELGKRMAETVNVIKSAESGKPPTDSVVKKLERVLGITLMEV -0.218

Now this one: HMAVSDPTAGGIKALMYPNPAQDRLSVALDIPAGLDKQAQMTVTDMMGRVVTQQQVTLNDGFQVFEL 0.209

What do we get for HMINVVDEVIKHLETNIISGFWAPGQKIDSEATLSKQLNVSRASIHTAIQQLIATGVLESFQGKGTFVRS ? -0.226

One more sequence: HMVAGGTVSRKLSIETGLPKRKSLIGSWLDQNSVWHNIISVRHRNGYGDGVNYGFYLRSLLTSEGNLAW 0.0466

And the next one, HMAHKRVDGTIVTPLTADTIVLRTGTHGEQPFEIRDTTRHKLESLQKGDMVILLIDTDNKVIDVAIPP ? -0.263
